B1: Pistol ribozyme (parent)
chain: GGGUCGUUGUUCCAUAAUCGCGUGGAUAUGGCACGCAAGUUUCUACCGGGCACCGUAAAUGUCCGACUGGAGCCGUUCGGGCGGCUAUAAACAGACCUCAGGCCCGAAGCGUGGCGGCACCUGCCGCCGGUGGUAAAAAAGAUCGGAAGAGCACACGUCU

- Variants of: B1
- ASSAY REMARKS: aptazyme ON/OFF ratio, guanine; higher = stronger switching; co-transcriptional cleavage with and without guanine
As shown below, each of these variants has a reported aptazyme ON/OFF ratio value.

U7A U8A G9A U10G C12U C13G; 1.17
U7A U8C G9A U10G U11G C13A; 1.25
U7A U8C U10A U11G C12G; 1.32

(Q) Please give measured aptazyme ON/OFF ratio of the following entry: U7C U8G G9A U10A U11G C12U C13A
(A) 1.24
